assay_explanation: Toxicity liver stage against HepG2, at 10uM
Format: cell-based
Parameters: test concentration 10 uM, cell line HepG2-A16-CD81EGFP
particulars: human, HepG2-A16-CD81EGFP cells; read-out: INHIBITION
# cytotoxicity at 10 µM listing for each entry below
Answer format: numeric, % implied, no suffix.

compound=O=C(NC[C@H]1C[C@@H]2CCN1C[C@@H]2CN1CCCCC1)c1ccco1 measured_number=7.32
compound=CS(=O)(=O)N1CCOC2(CCN(c3nccs3)CC2)c2ccccc21 measured_number=1.18
compound=CCS(=O)(=O)NCc1nc(C)cc(N2CCOCC2)n1 measured_number=-0.978
compound=CN(C)C[C@@H]1CCC[C@@H]2CN(c3ncccn3)C[C@@H]21 measured_number=5.85
compound="O=C(CN1CCS(=O)(=O)CC1)NC1CCCCc2ccccc21 (stereo not given)" measured_number=7.28
compound="CCc1cc(C(F)(F)F)n2nc(C3CCCN3C(=O)COC)cc2n1 (stereo not given)" measured_number=3.01
compound=O=C(Cc1ccc(F)cc1Cl)N1C[C@@H](CN2CCC(O)CC2)[C@@H](CO)C1 measured_number=9.32
compound=CC(C)(C)NC(=O)CNC(=O)Nc1cc(-c2ccccc2)ns1 measured_number=16.6
compound=Cc1ncc2c(n1)CCN(Cc1nc3ccccc3o1)C2 measured_number=1.66
compound=Cc1[nH]/c(=N\C(=O)c2csc(NC3CCCC3)n2)sc1C measured_number=38.8

For Cc1c[nH]c(CN(C)C(=O)c2cccc(CCC(C)(C)O)c2)n1 , what is its reported cytotoxicity at 10 µM?
-6.85

For CCCS(=O)(=O)NCC1OCCc2cn(CC3CCOCC3)nc21 (stereo not given) , what is its reported cytotoxicity at 10 µM?
-5.6

For O=C1[C@H]2CN(Cc3ccoc3)C[C@@H]2CCN1Cc1cccnc1 , what is its reported cytotoxicity at 10 µM?
-71.5

For CCN1CCC(CNc2nccc(C)n2)(N(C)C)CC1 , what is its reported cytotoxicity at 10 µM?
-0.51

For CC(C)NC(=O)c1cc2c(s1)CCN2c1ncccn1 , what is its reported cytotoxicity at 10 µM?
-123
